B1: TPR t1 (parent)
chain: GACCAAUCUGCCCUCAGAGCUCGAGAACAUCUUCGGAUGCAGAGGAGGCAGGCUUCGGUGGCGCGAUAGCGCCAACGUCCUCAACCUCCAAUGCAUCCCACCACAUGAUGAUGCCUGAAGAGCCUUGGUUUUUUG

Variants of: B1
assay overview: polymerase ribozyme fitness, log enrichment relative to wild type (log ratio); higher = more active; in vitro selection for triplet polymerase activity
property label: polymerase ribozyme fitness (log ratio)
Please give only the number in your answer, with no unit.

changes: C53A U92G A95U
polymerase ribozyme fitness (log ratio): -2.44

Which value of polymerase ribozyme fitness (log ratio) has been reported for U9G G57U in the records?
-0.376

Which value of polymerase ribozyme fitness (log ratio) has been reported for G47U C72G U81A in the records?
-3.46

Which value of polymerase ribozyme fitness (log ratio) has been reported for C49G U125A in the records?
-0.51

Which value of polymerase ribozyme fitness (log ratio) has been reported for A2G C40U U55C in the records?
-1

Which value of polymerase ribozyme fitness (log ratio) has been reported for G44C U54A G61U C85U U87A C102A in the records?
-4.76

Which value of polymerase ribozyme fitness (log ratio) has been reported for C53U U59A C89A U130G in the records?
-3.42

Which value of polymerase ribozyme fitness (log ratio) has been reported for G58U C104U A105U G110A C124U U133G in the records?
-7.29

Ref: the RNAGym collection of RNA variant scans (doi:10.1073/pnas.2313332121)
